- PARTICULARS: in n-butanol, 293.15 K
READOUT: solubility (mole fraction)

INSERT INTO assay_data (molecule, reported_measurement) VALUES
  ('Cc1c(OCC(F)(F)F)ccnc1CS(=O)c1nc2ccccc2[nH]1 (stereo unspecified)', 0.00215);

###

- PARTICULARS: in n-butanol, 288.15 K
READOUT: solubility (mole fraction)

INSERT INTO results (molecule, reported_measurement) VALUES
  ('Cc1c(OCC(F)(F)F)ccnc1CS(=O)c1nc2ccccc2[nH]1 (stereo unspecified)', 0.00166);

###

- PARTICULARS: in n-butyl acetate, 283.15 K
READOUT: solubility (mole fraction)

INSERT INTO assay_data (compound, reported_measurement) VALUES
  ('Cc1c(OCC(F)(F)F)ccnc1CS(=O)c1nc2ccccc2[nH]1 (stereo unspecified)', 0.000987);

###

- PARTICULARS: in n-butanol, 313.15 K
READOUT: solubility (mole fraction)

INSERT INTO measurements (compound, reported_measurement) VALUES
  ('Cc1c(OCC(F)(F)F)ccnc1CS(=O)c1nc2ccccc2[nH]1 (stereo unspecified)', 0.00515);

###

- PARTICULARS: in n-pentanol, 288.15 K
READOUT: solubility (mole fraction)

INSERT INTO measurements (molecule, reported_measurement) VALUES
  ('Cc1c(OCC(F)(F)F)ccnc1CS(=O)c1nc2ccccc2[nH]1 (stereo unspecified)', 0.00184);

###

- PARTICULARS: in n-butyl acetate, 308.15 K
READOUT: solubility (mole fraction)

INSERT INTO measurements (compound, readout, reported_measurement) VALUES
  ('Cc1c(OCC(F)(F)F)ccnc1CS(=O)c1nc2ccccc2[nH]1 (stereo unspecified)', 'solubility (mole fraction)', 0.00232);

###

- PARTICULARS: in 2-butanone, 288.15 K
READOUT: solubility (mole fraction)

INSERT INTO assay_data (compound, readout, reported_measurement) VALUES
  ('Cc1c(OCC(F)(F)F)ccnc1CS(=O)c1nc2ccccc2[nH]1 (stereo unspecified)', 'solubility (mole fraction)', 0.00349);

###

- PARTICULARS: in isobutyl acetate, 313.15 K
READOUT: solubility (mole fraction)

INSERT INTO measurements (molecule, readout, reported_measurement) VALUES
  ('Cc1c(OCC(F)(F)F)ccnc1CS(=O)c1nc2ccccc2[nH]1 (stereo unspecified)', 'solubility (mole fraction)', 0.00228);

###

- PARTICULARS: in isobutyl acetate, 283.15 K
READOUT: solubility (mole fraction)

INSERT INTO measurements (compound, readout, reported_measurement) VALUES
  ('Cc1c(OCC(F)(F)F)ccnc1CS(=O)c1nc2ccccc2[nH]1 (stereo unspecified)', 'solubility (mole fraction)', 0.000784);

###

- PARTICULARS: in acetone, 318.15 K
READOUT: solubility (mole fraction)

INSERT INTO results (compound, reported_measurement) VALUES
  ('Cc1c(OCC(F)(F)F)ccnc1CS(=O)c1nc2ccccc2[nH]1 (stereo unspecified)', 0.00801);
